# credit: PubChem BioAssay (NCI)

- procedure-summary: NCI Yeast Anticancer Drug Screen. Data for the rad50EPP+ strain (AID 151);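 further: 0% = growth of vehicle-treated control cultures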
- experimental-conditions: S. cerevisiae rad50 mutant strain, at 100.0 µM
Compounds without any hit were thinned out: in the full panel of roughly 79,000, 15% have a hit. Activity calls are given as the source filed them. No stated cut-off is given here; in the data, active means growth inhibition above about 70%; inactive means the rest.
Would you mind answering with one of these outcomes? class 1 for active, class 0 for inactive

Worked examples, 2 molecules total:
Clc1cc(-c2ccccc2)nc2ccccc12: class 1
CCOC(=O)[C@]1(Br)CC[C@@]1(Br)C(=O)OCC: class 1

Problem: Please indicate how the test categorized `OCCNCCOc1ccc(/C(=C(/Cl)c2ccccc2)c2ccccc2)cc1` .
Result: class 1

Problem: And then `CC(C)c1[nH]nc(C(N)=O)c1N=NN(C)C` , what is it?
Result: class 1

Problem: Same lookup for `CCCc1[nH]nc(C(N)=O)c1N=NN(C)C` , please.
Result: class 1

Problem: Next molecule up: `Cc1ccc(CNc2ccc(Br)cc2)cc1`
Result: class 0

Problem: What do you have for `Cc1cc(C(C)(C)CC(C)(C)C)cc(O)c1O` ?
Result: class 1

Problem: Also, `O=C(O)c1cccc2cccc(-c3c4ccc(=O)cc-4oc4cc(O)ccc34)c12` please.
Result: class 1

Problem: Let us now turn to `Nc1cc(S(N)(=O)=O)ccc1SSc1ccc(S(N)(=O)=O)cc1N`
Result: class 1

====

- procedure-summary: NCI Yeast Anticancer Drug Screen. Data for the wt1 strain (AID 149);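 further: 0% = growth of vehicle-treated wt1 cultures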
- experimental-conditions: S. cerevisiae wt1 strain (SPY 50644) growth inhibition; at 3.7 µM
Compounds without any hit were thinned out: in the full panel of roughly 79,000, 15% have a hit. The source made the active and inactive calls. No stated cut-off is given here; in the data, active means growth inhibition above about 70%; inactive means the rest.
Could you please pick one outcome from this set? TRUE for active, FALSE for inactive

Solved entries (count: 3):
CCC(NC(C)c1ccccc1)C(=O)c1ccc(OCc2ccccc2)c(OCc2ccccc2)c1 (configuration not stated): FALSE
Cc1cc(C)c(N2C(=O)CC(Sc3ccccc3N)C2=O)c(C)c1 (configuration not stated): FALSE
O=C(N/N=C\c1c(Cl)cccc1Cl)N/N=C/c1c(Cl)cccc1Cl: FALSE

Problem: Answer briefly: the call reported for `S=C1SCN(CCc2ccccc2)CN1CCc1ccccc1` in this assay.
Result: FALSE

Problem: Also `O=C(O)c1ccccc1.[Ag]` ?
Result: TRUE

Problem: And what about the compound `Cc1ccc(S(=O)(=O)N/N=C/C2(c3ccccc3)c3ccccc3-c3ccccc32)cc1` ?
Result: FALSE

Problem: Request: `O=C1c2ccccc2C(=O)c2cc(S(=O)(=O)Nc3ccccc3)ccc21`
Result: FALSE

Problem: Same thing, different compound: N#CSC1CCCCNC1=O (configuration not stated)
Result: FALSE

Problem: Moving on to the next compound: `Cc1cccc2c1N=C(C(F)(F)F)CC2=O`
Result: FALSE

Problem: // next record `O=[N+]([O-])c1cc(S(=O)(=O)Nc2ccccc2)ccc1Cl`
Result: FALSE

Problem: Same again, this time with CC1OC(OC2CCCc3c(O)c4c(c(O)c32)C(=O)c2ccccc2C4=O)CC(N)C1O (configuration not stated)
Result: FALSE

Problem: Another: `C/C=C/[P+](c1ccccc1)(c1ccccc1)c1ccccc1`
Result: FALSE

Problem: Continue with `Cc1c(-c2ccccc2)[nH]c2ccccc12`
Result: FALSE

Problem: Again, but for Nc1nc2c(c(=O)[nH]1)NC(CCNc1ccc(C(=O)O)cc1)CN2 (configuration not stated)
Result: FALSE

Problem: Field entry: `OB(O)c1ccccc1C#Cc1ccccc1B(O)O`
Result: FALSE

Problem: Similarly, `COc1ccc(S(=O)(=O)N/N=C\c2cc([N+](=O)[O-])cc(I)c2O)c(OC)c1OC` ?
Result: FALSE

Problem: Thanks! And CCOP1(=O)C=C(Sc2ccc([N+](=O)[O-])cc2[N+](=O)[O-])C(C)(C)O1 (configuration not stated) ?
Result: FALSE

Problem: And the next one, CCCCC(CC)C(=O)Oc1ccc(C(=O)c2ccccc2)c(O)c1 (configuration not stated) ?
Result: FALSE

Problem: // next record CCOC(=O)C(NC(=O)CC)(N1CCN(c2cc3c(cc2F)c(=O)c(C(=O)O)cn3C2CC2)CC1)C(F)(F)F (configuration not stated)
Result: FALSE

Problem: Same question, `N#C/C(=C/N1C(=O)/C(=C/c2ccc([N+](=O)[O-])cc2)SC1=S)c1nc2ccccc2s1` this time
Result: FALSE

Problem: Also need CC1CCC2(C(=O)O)CCC3(C)C(=CCC4C5(C)CC(O)C(O)C(C)(CO)C5C(O)CC43C)C2C1C (configuration not stated) , thanks.
Result: FALSE

Problem: Repeat with `COc1cc(CNc2ccc(C(C)C)cc2)cc(OC)c1OC`
Result: FALSE

====

- procedure-summary: NCI Yeast Anticancer Drug Screen. Data for the rad52 strain (AID 147);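 further: 0% = growth of vehicle-treated control cultures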
- experimental-conditions: S. cerevisiae rad52 mutant growth inhibition; at 1.2 µM
About 79,000 compounds went through this panel and 15% of them were active in at least one assay; those are over-represented in the sample as a whole. Activity calls are given as the source filed them. Rule as the data show it: active = growth inhibition above about 70%; inactive = the rest. Residues, ends and D or L forms follow the SMILES beside them. *: point of attachment. CH2Cl = ClC*
Assign a class; possible classes are yes = active, no = inactive

Example cases with answers are listed next.
CC(=O)NC(CC(C)C)C(=O)NC(Cc1ccccc1)C(=O)CCl (stereo not drawn) (Ac-Leu-Phe-CH2Cl; configuration not given here): no
N#C/C(=C\c1ccccc1)c1ccccc1F: no
O=Nc1ccc(Nc2ccccc2)cc1: no
CC(=O)CC(=O)/C=C/c1cccs1: no
Cc1c2cc[n+](CCN3CCCCC3)cc2c(C)c2c1[nH]c1ccc(O)cc12: no
Nc1nc(N)c2cc(Sc3ccc4ccccc4c3)ccc2n1: no
COc1ccc(SCc2cc(OC)ccc2OC)cc1: no
c1ccc(N2N=C3N(c4ccccc4)C2N3c2ccccc2)cc1: no
O=C1CC(=O)N(C2CCCCC2)C(=O)N1c1ccccc1S(=O)(=O)Oc1ccccc1: no
O=[N+]([O-])/C(C(Cl)=C(Cl)Cl)=C1/OCCS1: no

Problem: Status in this test for `O=C(O)c1ccccc1.[Ag]` ?
Result: yes

====

- procedure-summary: NCI Yeast Anticancer Drug Screen. Data for the bub3 strain (AID 167)
- experimental-conditions: S. cerevisiae bub3 mutant strain, at 33.0 µM, active compounds read high
This is part of a sample that, as a whole, favours compounds with a hit. Of some 79,000 tested, about 15% had one in any assay.
measure-name: growth inhibition (%)
Write the answer as a number in %, unit excluded.

COC(=O)/C=C1/OC(c2ccc(Br)cc2)=C(Br)C1=O: 70
CN(C)CCNc1cccc2sc3ccc(O)cc3c(=O)c12: -2
CC1=CCCC2C1(C)CCC(C)C2(C)Cc1cc(O)ccc1O (configuration not stated): 99
Nc1ccc(CCl)cc1Cc1c(O)ccc2ccccc12: 1
COc1ccc(N2C(=O)CC(Cl)C2=O)cc1 (configuration not stated): 92
O=C1CSC(=S)N1Cc1ccc(Cl)cc1Cl: 99
CC1C(C#N)(C#N)C(C#N)=C(N)C1(Cl)[N+](=O)[O-] (configuration not stated): 49
COc1cc2c(cc1C[N+](C)(C)CSc1ccccc1)-c1ccccc1CC2: 98
CC(=O)N1C(=O)/C(=C\C(=O)c2ccc(Cl)cc2)c2ccccc21: 81
O=C(/C=C/c1cccc(Br)c1)c1ccc(Cl)cc1: 57

Now look at this entry.
Problem: So what's the measured growth inhibition for this one? `Cc1c2cc[n+](CCN3CCCCC3)cc2c(C)c2c1[nH]c1ccc(O)cc12`
Result: -5

====

Listing of recorded growth inhibition by entry.
- procedure-summary: NCI Yeast Anticancer Drug Screen. Data for the wt1 strain (AID 149);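 further: 0% = growth of vehicle-treated wt1 cultures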
- experimental-conditions: S. cerevisiae wt1 strain (SPY 50644) growth inhibition; at 11.0 µM; active compounds read high
Compounds without any hit were thinned out: in the full panel of roughly 79,000, 15% have a hit.
Write the answer as a number in %, unit excluded.

Worked cases, answers included:
CC(=O)C1=C(C)O/C(=C/c2cccc(Cl)c2)C1=O: 2
CC(C)c1[nH]nc(C(N)=O)c1N=NN(C)C: -8
O=c1[nH]cc(/C=N\Nc2ccccc2)c(=O)[nH]1: 37
S=c1cn[nH]c2ccc(Br)cc12: -11

Problem: Bench note: what growth inhibition did `O=[N+]([O-])c1cc(S(=O)(=O)Nc2ccccc2)ccc1Cl` show?
Result: 0

Problem: Thanks! And NP1(Oc2ccc(F)cc2)=NP(N)(Oc2ccc(F)cc2)=NP(Oc2ccc(F)cc2)(Oc2ccc(F)cc2)=N1 (stereo not drawn) ?
Result: 20

Problem: What would you report for `OB(O)c1ccccc1C#Cc1ccccc1B(O)O` ?
Result: 6

Problem: Field entry: `BrCc1ccccc1C(c1ccccc1)c1ccccc1`
Result: 96

Problem: Do the same for `C=C(C)[C@@H]1CCc2c(O)c(O)c(=O)cc(C)c2C1` please
Result: 37
